Target chain: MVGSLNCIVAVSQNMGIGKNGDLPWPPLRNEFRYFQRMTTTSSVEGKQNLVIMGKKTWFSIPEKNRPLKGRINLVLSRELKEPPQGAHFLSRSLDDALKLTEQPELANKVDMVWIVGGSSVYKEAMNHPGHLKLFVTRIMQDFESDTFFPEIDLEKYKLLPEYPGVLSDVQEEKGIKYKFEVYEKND
METRIC: pIC50
Here pIC50 is given on a logarithmic scale as minus log10 of the concentration in mol/L.

For the molecule COc1cc(C(=O)/C=C\c2cn(-c3ccccc3)nc2-c2ccccc2)cc(OC)c1OC [compound 4] , give its measured pIC50 value. 5.30

For the molecule COc1cc(C2=NN(C(C)=O)C(c3cn(-c4ccccc4)nc3-c3ccccc3)C2)cc(OC)c1OC (stereo not shown) [compound 7] , give its measured pIC50 value. 5.17

For the molecule COc1cc(C2=NN(c3ccccc3)C(c3cn(-c4ccccc4)nc3-c3ccccc3)C2)cc(OC)c1OC (stereo not shown) [compound 6b] , give its measured pIC50 value. 5.19

For the molecule COc1cc(-c2cc(-c3cn(-c4ccccc4)nc3-c3ccccc3)[nH]c(=N)n2)cc(OC)c1OC [compound 5c] , give its measured pIC50 value. 5.40

---

tested on: P. aeruginosa; assay: Agar diffusion method, inhibition zones, P. aeruginosa; assay type: cell-based, Pseudomonas aeruginosa; settings: Pseudomonas aeruginosa, 24 h, read-out: IZ (inhibition zone)
For each record, write down the corresponding zone of inhibition at 10000 µg/mL.
Provide the reading as a plain figure in mm.

For the compound COc1cc(C2=NN(C(C)=O)C(c3cn(-c4ccccc4)nc3-c3ccccc3)C2)cc(OC)c1OC (stereo not shown) , give its measured zone of inhibition at 10000 µg/mL value. 0

For the compound `COc1cc(-c2cc(-c3cn(-c4ccccc4)nc3-c3ccccc3)[nH]c(=S)n2)cc(OC)c1OC` , give its measured zone of inhibition at 10000 µg/mL value. 20

For the compound `COc1cc(-c2cc(-c3cn(-c4ccccc4)nc3-c3ccccc3)[nH]c(=O)n2)cc(OC)c1OC` , give its measured zone of inhibition at 10000 µg/mL value. 22

For the compound C[C@H]1COc2c(N3CCN(C)CC3)c(F)cc3c(=O)c(C(=O)O)cn1c23 [levofloxacin, reference compound] , give its measured zone of inhibition at 10000 µg/mL value. 27
